Numbers sourced from patent US7902191B2.

- tested.target: H4R (human GPRv53 receptor) (Homo sapiens)
- Construct: expressed in transfected cells; host or cells: HEK293 GPRv53 50 cells (whole-cell homogenate/lysate)
- Sequence (Q9H3N8 whole entry): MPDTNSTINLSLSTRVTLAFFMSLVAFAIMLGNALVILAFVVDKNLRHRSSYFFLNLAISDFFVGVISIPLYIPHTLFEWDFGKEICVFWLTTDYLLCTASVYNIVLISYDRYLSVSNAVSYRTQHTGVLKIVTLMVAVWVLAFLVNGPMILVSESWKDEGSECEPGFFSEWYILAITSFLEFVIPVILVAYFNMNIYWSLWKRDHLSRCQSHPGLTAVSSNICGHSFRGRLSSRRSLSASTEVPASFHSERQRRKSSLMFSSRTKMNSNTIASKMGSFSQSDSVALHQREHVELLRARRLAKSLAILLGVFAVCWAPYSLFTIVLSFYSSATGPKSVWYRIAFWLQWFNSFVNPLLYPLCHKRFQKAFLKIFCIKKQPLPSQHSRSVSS
- measurement.description: competitive binding assay, GPRv53 (H4R), (3H) Histamine
- condition.label: selectivity panel
observed.property: Ki

Data point: O=C(c1ccc2c(c1)CCCC2)N1CCC[C@H]1CN1CCCC1 [Example 15] ; Ki = ≥ 20000 nM

* * *

- tested.target: H2 (human histamine 2 receptor) (Homo sapiens)
- Construct: expressed in transfected cells
- Sequence (P25021 whole entry): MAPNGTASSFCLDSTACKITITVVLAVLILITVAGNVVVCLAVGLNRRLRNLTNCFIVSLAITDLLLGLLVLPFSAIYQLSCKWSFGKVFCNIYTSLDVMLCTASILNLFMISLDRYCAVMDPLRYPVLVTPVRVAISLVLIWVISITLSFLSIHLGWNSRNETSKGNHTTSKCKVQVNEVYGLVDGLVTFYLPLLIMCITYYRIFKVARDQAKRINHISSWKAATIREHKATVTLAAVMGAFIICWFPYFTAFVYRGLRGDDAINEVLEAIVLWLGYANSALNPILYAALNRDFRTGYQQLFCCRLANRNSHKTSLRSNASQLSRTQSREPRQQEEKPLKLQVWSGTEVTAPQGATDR
- measurement.description: competitive SPA binding assay, H2R, 3H-tiotidine
- condition.label: selectivity panel
observed.property: Ki

get_value(item= O=C(c1ccc2c(c1)CCCC2)N1CCC[C@H]1CN1CCCC1 [Example 15] , readout=Ki) returns ≥ 17800 nM
